Where do the numbers come from? From the supplement of paper PMC6897291.

Tested on: U-2932
Assay: growth inhibition by drug plus 177Lu-lilotomab satetraxetan (1 - RLU/untreated control) (fraction); higher = stronger inhibition
Settings: 1000 nM; time (day): 3; 177Lu-lilotomab satetraxetan 1 ug/ml
Mark Y for reported growth inhibition by drug plus 177Lu-lilotomab satetraxetan of 0.005 or greater; mark N for anything smaller.

Query block: Decide: is the reported value of growth inhibition by drug plus 177Lu-lilotomab satetraxetan for `C[C@@H](Oc1cc(-n2cnc3ccc(CN4CCN(C)CC4)cc32)sc1C(N)=O)c1ccccc1C(F)(F)F` equal to or greater than 0.005?
Result block: Y

More entries:
Query block: Decide: is the reported value of growth inhibition by drug plus 177Lu-lilotomab satetraxetan for `CNC(=O)c1cc(Oc2ccc(NC(=O)Nc3ccc(Cl)c(C(F)(F)F)c3)cc2)ccn1` equal to or greater than 0.005?
Result block: N

Query block: Repeat for the following molecule: `c1ccc2c(CCNc3ccc(Nc4ccncc4)cc3)c[nH]c2c1`
Result block: Y

Query block: Repeat for the following molecule: `Nc1nc(F)nc2c1ncn2[C@@H]1O[C@H](CO)[C@@H](O)[C@@H]1O`
Result block: N

Query block: Repeat for the following molecule: `CCN(CC)CCCCNc1ncc2cc(-c3cc(OC)cc(OC)c3)c(NC(=O)NC(C)(C)C)nc2n1`
Result block: N

Query block: Repeat for the following molecule: C[C@]12CC[C@@H]3c4ccc(O)cc4C[C@@H](CCCCCCCCC[S+]([O-])CCCC(F)(F)C(F)(F)F)[C@H]3[C@@H]1CC[C@@H]2O (some centres not stated)
Result block: N

Query block: Repeat for the following molecule: `CC[C@@H]1/C=C(\C)C[C@H](C)C[C@H](OC)[C@H]2O[C@@](O)(C(=O)C(=O)N3CCCC[C@H]3C(=O)O[C@H](/C(C)=C/[C@@H]3CC[C@H](Cl)[C@H](OC)C3)[C@H](C)[C@@H](O)CC1=O)[C@H](C)C[C@@H]2OC`
Result block: Y

###

Tested on: RIVA
Experiment: growth inhibition by drug alone (1 - RLU/untreated control) (fraction); higher = stronger inhibition
Settings: 10 nM; time (day): 5; 177Lu-lilotomab satetraxetan 0 ug/ml
endpoint: growth inhibition by drug alone
// return a plain number; no unit text

Sample records with growth inhibition by drug alone:
Query block: Query for RIVA: what growth inhibition by drug alone does the record show for O=C(CCc1ccc(O)cc1)c1c(O)cc(O)cc1O [Phloretin (Dihydronaringenin)] ?
Result block: -0.168

Query block: Repeat for the following molecule: CC[C@H]1OC(=O)[C@H](C)[C@@H](O[C@H]2C[C@@](C)(OC)[C@@H](O)[C@H](C)O2)[C@H](C)[C@@H](O[C@@H]2O[C@H](C)C[C@H](N(C)C)[C@H]2O)[C@](C)(O)C[C@@H](C)CN(C)[C@H](C)[C@@H](O)[C@]1(C)O [Azithromycin (Zithromax)]
Result block: 0.16

API: the following record is the query input.
Query block: Query for RIVA: what growth inhibition by drug alone does the record show for `CCN(CC)CCOc1ccc(Nc2ncc3cc(-c4c(Cl)cccc4Cl)c(=O)n(C)c3n2)cc1` ?
Result block: -0.0667

###

System: RIVA
Test: growth inhibition by drug alone (1 - RLU/untreated control) (fraction); higher = stronger inhibition
Conditions: 100 nM; time (day): 3; 177Lu-lilotomab satetraxetan 0 ug/ml
Mark Y for reported growth inhibition by drug alone of -0.4 or greater; mark N for anything smaller.

Query block: Decide: is the reported value of growth inhibition by drug alone for `CC1(COc2ccc3c(c2)ncn3-c2ccc3cccc(N4CCC(N)CC4)c3n2)COC1` equal to or greater than -0.4?
Result block: Y
